Data origin: patent US9605005B2

test system: REL-A (p65) nuclear translocation, HeLa cells; experiment: REL-A (p65) nuclear translocation assay in HeLa cells (classical NF-kB signaling, TNF-α stimulated); format: cell-based; conditions: Homo sapiens, 0.5 h; HeLa cells, 10 ng/mL TNF-α for 30 minutes; read-out: REL-A HeLa Transloc Assay (IC50)
Kindly state pIC50 for each of the entries shown.
Remember, pIC50 is on a log scale: it is -log10 of the molar concentration.

Request: Can you look up the measured pIC50 of "CN1CC[C@@](O)(C#Cc2cc(-n3nc(C(N)=O)c4c3CCCC4)ccc2C#N)C1=O" for me?
Result: 4.70

Request: Can you look up the measured pIC50 of "CN1CC[C@@](O)(C#Cc2cccc(-c3nc(C(N)=O)n4ccc(C#N)cc34)c2)C1=O" for me?
Result: 5.70

Request: Can you look up the measured pIC50 of "CNc1nccc2c1c(C(N)=O)nn2-c1cccc(C#C[C@]2(O)CCN(C)C2=O)c1" for me?
Result: 5.10

Request: Can you look up the measured pIC50 of "COc1ncc2c(C(N)=O)nn(-c3cccc(C#C[C@]4(O)CCN(C)C4=O)c3)c2n1" for me?
Result: 4.70

Request: Can you look up the measured pIC50 of "CN1CC[C@@](O)(C#Cc2cccc(-n3nc(C(N)=O)c4cc(OCCN5CCC5)ccc43)c2)C1=O" for me?
Result: 5.70

Request: Can you look up the measured pIC50 of "CN1CC[C@@](O)(C#Cc2ccnc(-n3nc(C(N)=O)c4ccc(F)cc43)c2)C1=O" for me?
Result: 5.70

Request: Can you look up the measured pIC50 of "CN1CC[C@@](O)(C#Cc2cccc(-n3nc(C(N)=O)c4c3CCC4)c2)C1=O" for me?
Result: 4.70

Request: Can you look up the measured pIC50 of "CN1CC[C@@](O)(C#Cc2cc(Cl)cc(-n3nc(C(N)=O)c4cccnc43)c2)C1=O" for me?
Result: 4.70

Request: Can you look up the measured pIC50 of "CN1CCC[C@@](O)(C#Cc2cccc(-n3nc(C(N)=O)c4ccc(F)cc43)c2)C1=O" for me?
Result: 4.70

Request: Can you look up the measured pIC50 of "CN1CC[C@@](O)(C#Cc2cc(F)cc(-n3nc(C(N)=O)c4cccnc43)c2)C1=O" for me?
Result: 4.70

Request: Can you look up the measured pIC50 of "CN1CC[C@@](O)(C#Cc2ccnc(-n3nc(C(N)=O)c4cc(F)ccc43)c2)C1=O" for me?
Result: 5.70

Request: Can you look up the measured pIC50 of "CN1CC[C@@](O)(C#Cc2cccc(-c3nc(C(N)=O)c4ccccn34)c2)C1=O" for me?
Result: 4.70

Request: Can you look up the measured pIC50 of "CN1CC[C@@](O)(C#Cc2cccc(-n3nc(C(N)=O)c4cnc(N5CCCC5)cc43)c2)C1=O" for me?
Result: 4.70

Request: Can you look up the measured pIC50 of "Cc1nnc([C@](C)(O)C#Cc2cccc(-n3nc(C(N)=O)c4cccnc43)c2)o1" for me?
Result: 4.70

Request: Can you look up the measured pIC50 of "CN1CC[C@@](O)(C#Cc2cccc(-n3nc(C(N)=O)c4cc(C#N)ccc43)c2)C1=O" for me?
Result: 4.70

* * *

Test system: p52 (NF-kB2) nuclear translocation, HeLa cells
Experiment: p52 (NF-kB2) nuclear translocation assay in HeLa cells (non-classical NF-kB signaling, anti-lymphotoxin beta receptor antibody stimulated)
Format: cell-based
Conditions: Homo sapiens, 100 ng/mL anti-lymphotoxin beta receptor antibody for 5 hours, read-out: p52 HeLa Transloc Assay (IC50)
Experimental: Several assays were developed to profile the cellular activities of NIK inhibitors. (2) A second set of cell assay are used to define the selectivity of NIK inhibitors toward inhibition of classical vs. non-classical NF-kB signaling and rely on quantification of the nuclear translocation of p52 (NF-kB2) and REL-A (p65) using high content cellular imaging. […] Imaging is carried out using an Opera reader (Perkin Elmer) and data are analyzed with the aid of Acapella software (Perkin Elmer). […]
experimental_endpoint: IC50 (nM)
State the answer as a number, implicitly in nM.

Request: Can you look up the measured IC50 of "CN1CC[C@@](O)(C#Cc2cccc(-n3nc(C(N)=O)c4c(Cl)cccc43)c2)C1=O" for me?
Result: 108

Request: Can you look up the measured IC50 of "Cc1ncc2c(C(N)=O)nn(-c3cccc(C#C[C@]4(O)CCN(C)C4=O)c3)c2n1" for me?
Result: 157

Request: Can you look up the measured IC50 of "CN1CC[C@@](O)(C#Cc2ccnc(-n3nc(C(N)=O)c4cc(Br)ccc43)c2)C1=O" for me?
Result: 55

Request: Can you look up the measured IC50 of "CCCC(=O)N(C)Cc1ccc2c(c1)c(C(N)=O)nn2-c1cc(C#C[C@]2(O)CCN(C)C2=O)ccn1" for me?
Result: 793

* * *

system: p52 (NF-kB2) nuclear translocation, HeLa cells; experiment: p52 (NF-kB2) nuclear translocation assay in HeLa cells (non-classical NF-kB signaling, anti-lymphotoxin beta receptor antibody stimulated); assay type: cell-based; conditions: Homo sapiens, 100 ng/mL anti-lymphotoxin beta receptor antibody for 5 hours, read-out: p52 HeLa Transloc Assay (IC50)
Kindly state pIC50 for each of the entries shown.
Remember, pIC50 is on a log scale: it is -log10 of the molar concentration.

Request: Can you look up the measured pIC50 of "Cc1nc2c(s1)c(C(N)=O)nn2-c1cccc(C#C[C@]2(O)CCN(C)C2=O)c1" for me?
Result: 7.35

Request: Can you look up the measured pIC50 of "CN1CC[C@@](O)(C#Cc2cccc(-n3nc(C(N)=O)c4cc(F)cnc43)c2)C1=O" for me?
Result: 7.24

Request: Can you look up the measured pIC50 of "COc1ccn2c(C(N)=O)nc(-c3cccc(C#C[C@@](C)(O)c4nnc(C)o4)c3)c2c1" for me?
Result: 7.32

Request: Can you look up the measured pIC50 of "CN1CC[C@@](O)(C#Cc2cccc(-n3nc(C(N)=O)c4ccccc43)c2)C1=O" for me?
Result: 7.24

Request: Can you look up the measured pIC50 of "CN1CC[C@@](O)(C#Cc2cccc(-n3nc(C(N)=O)c4cnc(C(F)(F)F)nc43)c2)C1=O" for me?
Result: 5.70

Request: Can you look up the measured pIC50 of "CN1CC[C@@](O)(C#Cc2cccc(-n3nc(C(N)=O)c4c3CCOC4)c2)C1=O" for me?
Result: 6.06

Request: Can you look up the measured pIC50 of "CN1CC[C@@](O)(C#Cc2cccc(-n3nc(C(N)=O)c4c3COC4)c2)C1=O" for me?
Result: 6.66

Request: Can you look up the measured pIC50 of "Cc1cc([C@](C)(O)C#Cc2ccnc(-n3nc(C(N)=O)c4c3CCCC4)c2)no1" for me?
Result: 5.64

* * *

molecular target: nuclear factor-kappa B (NF-kB)-inducing kinase (NIK) (Homo sapiens (Human)); assay: NIK enzyme inhibition assay (Transcreener ADP, NIK ADP-FP); format: biochemical; conditions: purified NIK 0.5 nM, 10 μM ATP, fluorescence polarization; read-out: NIK ADP-FP (Ki μM)
Sequence (Q99558 whole entry): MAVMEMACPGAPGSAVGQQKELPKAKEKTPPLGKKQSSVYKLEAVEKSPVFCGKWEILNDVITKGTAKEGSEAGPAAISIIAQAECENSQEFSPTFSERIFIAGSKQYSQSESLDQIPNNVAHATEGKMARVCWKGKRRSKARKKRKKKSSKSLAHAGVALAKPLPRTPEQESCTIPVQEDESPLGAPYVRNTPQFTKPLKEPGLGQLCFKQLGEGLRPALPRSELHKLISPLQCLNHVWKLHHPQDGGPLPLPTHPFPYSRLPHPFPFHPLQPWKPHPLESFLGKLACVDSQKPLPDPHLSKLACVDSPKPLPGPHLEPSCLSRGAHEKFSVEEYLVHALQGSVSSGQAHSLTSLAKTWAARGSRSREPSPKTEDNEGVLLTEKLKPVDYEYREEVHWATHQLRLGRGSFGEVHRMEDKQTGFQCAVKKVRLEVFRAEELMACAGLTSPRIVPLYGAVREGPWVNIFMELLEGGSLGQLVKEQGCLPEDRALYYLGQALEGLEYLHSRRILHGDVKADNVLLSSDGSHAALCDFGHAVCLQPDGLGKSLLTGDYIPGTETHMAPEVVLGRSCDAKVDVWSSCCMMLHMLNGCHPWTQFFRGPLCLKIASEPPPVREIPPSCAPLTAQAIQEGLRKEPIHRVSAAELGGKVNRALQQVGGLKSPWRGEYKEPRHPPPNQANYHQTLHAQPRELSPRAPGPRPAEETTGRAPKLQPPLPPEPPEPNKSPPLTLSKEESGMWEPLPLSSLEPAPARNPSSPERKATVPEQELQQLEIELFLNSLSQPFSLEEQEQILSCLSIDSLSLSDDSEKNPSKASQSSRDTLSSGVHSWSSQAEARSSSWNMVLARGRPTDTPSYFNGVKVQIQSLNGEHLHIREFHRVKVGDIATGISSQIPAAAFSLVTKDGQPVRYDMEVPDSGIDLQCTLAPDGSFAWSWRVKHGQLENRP
experimental_endpoint: log10 of Ki (log10 of the value in nM)
Could you please treat all values as log10 of Ki in nM?

Request: Item: "CN1CC[C@@](O)(C#Cc2cccc(-n3nc(C(N)=O)c4c3CCN(CC(C)(C)O)C4)c2)C1=O" Test system: nuclear factor-kappa B (NF-kB)-inducing kinase (NIK) (Homo sapiens (Human)) Read-out: log10 of Ki Value: ?
Result: 1.85

Request: Item: "C[C@@H]1Cc2c(C(N)=O)nn(-c3cccc(C#C[C@]4(O)CCN(C)C4=O)c3)c2C1" Test system: nuclear factor-kappa B (NF-kB)-inducing kinase (NIK) (Homo sapiens (Human)) Read-out: log10 of Ki Value: ?
Result: -1.30

Request: Item: "NC(=O)c1nn(-c2cccc(C#C[C@]3(O)CCCC3=O)c2)c2ccccc12" Test system: nuclear factor-kappa B (NF-kB)-inducing kinase (NIK) (Homo sapiens (Human)) Read-out: log10 of Ki Value: ?
Result: -0.20

Request: Item: "COc1cc2c(C(N)=O)nn(-c3cccc(C#C[C@]4(O)CCN(C)C4=O)c3)c2cn1" Test system: nuclear factor-kappa B (NF-kB)-inducing kinase (NIK) (Homo sapiens (Human)) Read-out: log10 of Ki Value: ?
Result: -0.54

Request: Item: "CN1CC[C@@](O)(C#Cc2cccc(-c3nc(C(N)=O)n4ccc(C(F)(F)F)cc34)c2)C1=O" Test system: nuclear factor-kappa B (NF-kB)-inducing kinase (NIK) (Homo sapiens (Human)) Read-out: log10 of Ki Value: ?
Result: -0.82

Request: Item: "CN1CC[C@@](O)(C#Cc2cccc(-c3ccn4c(C(N)=O)nc(-c5cccc(C#C[C@]6(O)CCN(C)C6=O)c5)c4c3)c2)C1=O" Test system: nuclear factor-kappa B (NF-kB)-inducing kinase (NIK) (Homo sapiens (Human)) Read-out: log10 of Ki Value: ?
Result: -1.30

Request: Item: "CN1CC[C@@](O)(C#Cc2ccnc(-n3nc(C(N)=O)c4c3CC(C)(C)[C@H](O)C4)c2)C1=O" Test system: nuclear factor-kappa B (NF-kB)-inducing kinase (NIK) (Homo sapiens (Human)) Read-out: log10 of Ki Value: ?
Result: 1.52
